- assay-overview: refractive index (Na D-line) (dimensionless); xn = mol fraction of the nth substance listed
- measurement-conditions: 293.15 K; 101 kPa; Liquid; Standard Abbe refractometry; x1 = 0.25
measured-endpoint: refractive index
Simply state the number, no unit and no words.

Example compounds with recorded refractive index:
# compound, refractive index
data = [
    ("C=C[Si](C)(C)O[Si](C)(C)C=C [1,3-diethenyl-1,1,3,3-tetramethyldisiloxane] + CCc1ccccc1", 1.46476),
    ("C=C[Si](C)(C)O[Si](C)(C)C=C [1,3-diethenyl-1,1,3,3-tetramethyldisiloxane] + O=[N+]([O-])c1ccccc1", 1.49764),
    ("C=C[Si](C)(C)O[Si](C)(C)C=C [1,3-diethenyl-1,1,3,3-tetramethyldisiloxane] + Clc1ccccc1", 1.47913),
]

# context switch: different compound, same refractive index
Enquiry: For the compound shown here, C=C[Si](C)(C)O[Si](C)(C)C=C [1,3-diethenyl-1,1,3,3-tetramethyldisiloxane] + Fc1ccccc1 , give the reported refractive index.
Return: 1.44288

====

- assay-overview: refractive index (Na D-line) (dimensionless)
- measurement-conditions: 303.15 K; 101.33 kPa; Liquid; Standard Abbe refractometry
measured-endpoint: refractive index
Just the number, please, no unit attached.

Some molecules with recorded refractive index:
# molecule, measured-endpoint, observed-measurement
data = [
    ("COc1ccccc1 [anisole]", "refractive index", 1.51191),
    ("C=C[Si](C)(C)O[Si](C)(C)C=C [1,3-diethenyl-1,1,3,3-tetramethyldisiloxane]", "refractive index", 1.40707),
    ("Clc1ccccc1 [chlorobenzene]", "refractive index", 1.51893),
    ("O=[N+]([O-])c1ccccc1 [nitrobenzene]", "refractive index", 1.54746),
    ("Fc1ccccc1 [fluorobenzene]", "refractive index", 1.45989),
]

Shifting focus to the molecule that follows.
Enquiry: # lookup: refractive index of CCc1ccccc1 [ethylbenzene]
Return: 1.4903

====

Listing of entries alongside the reported mass density.
- assay-overview: xn = mol fraction of the nth substance listed
- measurement-conditions: 288.15 K; 101 kPa; Liquid; Vibrating tube method; x1 = 0.6
Respond numerically; units are kg/m3 and should not be typed.

# compound, mass density, kg/m3
rows = [
    ("C=C[Si](C)(C)O[Si](C)(C)C=C [1,3-diethenyl-1,1,3,3-tetramethyldisiloxane] + Clc1ccccc1", 889.27),
    ("C=C[Si](C)(C)O[Si](C)(C)C=C [1,3-diethenyl-1,1,3,3-tetramethyldisiloxane] + Fc1ccccc1", 864.73),
    ("C=C[Si](C)(C)O[Si](C)(C)C=C [1,3-diethenyl-1,1,3,3-tetramethyldisiloxane] + CCc1ccccc1", 834.01),
]

Consider the additional compound presented here.
Enquiry: Quick one: mass density of C=C[Si](C)(C)O[Si](C)(C)C=C [1,3-diethenyl-1,1,3,3-tetramethyldisiloxane] + COc1ccccc1 ?
Return: 864.89

====

- assay-overview: xn = mol fraction of the nth substance listed
- measurement-conditions: 288.15 K; 101 kPa; Liquid; Vibrating tube method; x1 = 0.25
# mass density per entry
Report as a plain number; the unit kg/m3 is understood.

Sample answers from the record:
# compound, unit-string, observed-measurement
data = [
    ("C=C[Si](C)(C)O[Si](C)(C)C=C [1,3-diethenyl-1,1,3,3-tetramethyldisiloxane] + Clc1ccccc1", "kg/m3", 991.8),
    ("C=C[Si](C)(C)O[Si](C)(C)C=C [1,3-diethenyl-1,1,3,3-tetramethyldisiloxane] + O=[N+]([O-])c1ccccc1", "kg/m3", 1052.41),
    ("C=C[Si](C)(C)O[Si](C)(C)C=C [1,3-diethenyl-1,1,3,3-tetramethyldisiloxane] + CCc1ccccc1", "kg/m3", 853.12),
]

Next compound, please.
Enquiry: # mass density lookup, item C=C[Si](C)(C)O[Si](C)(C)C=C [1,3-diethenyl-1,1,3,3-tetramethyldisiloxane] + Fc1ccccc1
Return: 937.46

====

Listing of entries alongside the reported mass density.
- assay-overview: xn = mol fraction of the nth substance listed
- measurement-conditions: 293.15 K; 101 kPa; Liquid; Vibrating tube method; x1 = 0.15
Lab book: enter the figure in kg/m3, no units written.

Check out these entries, answers already filled in.
# compound, mass density, kg/m3
data = [
    ("C=C[Si](C)(C)O[Si](C)(C)C=C [1,3-diethenyl-1,1,3,3-tetramethyldisiloxane] + Clc1ccccc1", 1027.97),
    ("C=C[Si](C)(C)O[Si](C)(C)C=C [1,3-diethenyl-1,1,3,3-tetramethyldisiloxane] + Fc1ccccc1", 962.94),
    ("C=C[Si](C)(C)O[Si](C)(C)C=C [1,3-diethenyl-1,1,3,3-tetramethyldisiloxane] + COc1ccccc1", 948.89),
]

Enquiry: Endpoint output: mass density of C=C[Si](C)(C)O[Si](C)(C)C=C [1,3-diethenyl-1,1,3,3-tetramethyldisiloxane] + O=[N+]([O-])c1ccccc1 . Value?
Return: 1102.13

====

- assay-overview: xn = mol fraction of the nth substance listed
- measurement-conditions: 283.15 K; 101 kPa; Liquid; Vibrating tube method; x1 = 0.6
Numbers after ± are expanded uncertainties.
measured-endpoint: mass density
Number first, unit second: that is the form wanted.

A selection of reference data follows.
# compound, mass density
data = [
    ("C=C[Si](C)(C)O[Si](C)(C)C=C [1,3-diethenyl-1,1,3,3-tetramethyldisiloxane] + Clc1ccccc1", "894.37 ± 1 kg/m3"),
    ("C=C[Si](C)(C)O[Si](C)(C)C=C [1,3-diethenyl-1,1,3,3-tetramethyldisiloxane] + COc1ccccc1", "869.73 ± 1 kg/m3"),
    ("C=C[Si](C)(C)O[Si](C)(C)C=C [1,3-diethenyl-1,1,3,3-tetramethyldisiloxane] + CCc1ccccc1", "838.73 ± 1 kg/m3"),
]

Enquiry: Look up mass density: C=C[Si](C)(C)O[Si](C)(C)C=C [1,3-diethenyl-1,1,3,3-tetramethyldisiloxane] + Fc1ccccc1
Return: 870.07 ± 1 kg/m3

====

- assay-overview: refractive index (Na D-line) (dimensionless); xn = mol fraction of the nth substance listed
- measurement-conditions: 288.15 K; 101 kPa; Liquid; Standard Abbe refractometry; x1 = 0.25
± gives the expanded uncertainty stated by the source.
measured-endpoint: refractive index

# molecule, refractive index
records = [
    ("C=C[Si](C)(C)O[Si](C)(C)C=C [1,3-diethenyl-1,1,3,3-tetramethyldisiloxane] + Clc1ccccc1", "1.48187 ± 0.00032"),
    ("C=C[Si](C)(C)O[Si](C)(C)C=C [1,3-diethenyl-1,1,3,3-tetramethyldisiloxane] + Fc1ccccc1", "1.44572 ± 0.00032"),
    ("C=C[Si](C)(C)O[Si](C)(C)C=C [1,3-diethenyl-1,1,3,3-tetramethyldisiloxane] + O=[N+]([O-])c1ccccc1", "1.50017 ± 0.00032"),
]

Now look at this entry.
Enquiry: refractive index lookup needed for C=C[Si](C)(C)O[Si](C)(C)C=C [1,3-diethenyl-1,1,3,3-tetramethyldisiloxane] + CCc1ccccc1 , thanks.
Return: 1.46746 ± 0.00032

====

Listed molecules paired with reported mass density
- measurement-conditions: 303.15 K; 101 kPa; Liquid; Vibrating tube method
Dear colleague, please return just the value in kg/m3, with no unit written.

Please review the entries below; each comes with its answer.
# smiles, observed-measurement
rows = [
    ("C=C[Si](C)(C)O[Si](C)(C)C=C", 803.07),
    ("CCc1ccccc1", 858.16),
    ("COc1ccccc1", 984.59),
    ("O=[N+]([O-])c1ccccc1", 1193.25),
    ("Clc1ccccc1", 1095.79),
]

Enquiry: Return reported mass density; argument: Fc1ccccc1
Return: 1013.03

====

- assay-overview: xn = mol fraction of the nth substance listed
- measurement-conditions: 303.15 K; 101 kPa; Liquid; Vibrating tube method; x1 = 0.25
# mass density per record follows
Response body: numeric value in kg/m3, unit text excluded.

Example entries begin here.
# compound, observed-measurement
records = [
    ("C=C[Si](C)(C)O[Si](C)(C)C=C [1,3-diethenyl-1,1,3,3-tetramethyldisiloxane] + O=[N+]([O-])c1ccccc1", 1038.12),
    ("C=C[Si](C)(C)O[Si](C)(C)C=C [1,3-diethenyl-1,1,3,3-tetramethyldisiloxane] + Clc1ccccc1", 975.62),
    ("C=C[Si](C)(C)O[Si](C)(C)C=C [1,3-diethenyl-1,1,3,3-tetramethyldisiloxane] + Fc1ccccc1", 920.12),
]

Enquiry: # query: mass density of entry C=C[Si](C)(C)O[Si](C)(C)C=C [1,3-diethenyl-1,1,3,3-tetramethyldisiloxane] + CCc1ccccc1
Return: 839.42
